- Tested on: Mus musculus
- experiment-summary: The compound was evaluated for inhibition of edema induced by serotonin at 250 ug/mL
- Type: functional
quantity-kind: Inhibition (%)

chem-smiles: O=c1oc2ccccc2n1CCc1ccccn1
test-target: Mus musculus
quantity-kind: Inhibition
measured-result: 10.2

chem-smiles: O=C(c1ccccc1Cl)c1cc2oc(=O)n(CCc3ccncc3)c2cc1Cl
test-target: Mus musculus
quantity-kind: Inhibition
measured-result: 8.4

chem-smiles: O=c1oc2ccccc2n1CCc1ccncc1
test-target: Mus musculus
quantity-kind: Inhibition
measured-result: 9.4

chem-smiles: O=C(c1ccccc1)c1ccc2c(c1)oc(=O)n2CCc1ccccn1
test-target: Mus musculus
quantity-kind: Inhibition
measured-result: 9.8

chem-smiles: O=c1oc2ccc(Cl)cc2n1CCc1ccncc1
test-target: Mus musculus
quantity-kind: Inhibition
measured-result: 13.1

chem-smiles: COc1ccc(C(=O)c2ccc3c(c2)oc(=O)n3CCc2ccncc2)cc1
test-target: Mus musculus
quantity-kind: Inhibition
measured-result: 15
